Items are presented alongside their recorded Functional Activity (% Basal).
measurementTarget: human B2 bradykinin receptors (CHO-hB2 cell membranes) (Homo sapiens, UniProt P30411)
Construct: purchased Receptor Biology, Inc. (Baltimore, Md.); host or cells: CHO-hB2 cells (membranes)
protocol: [35S]GTPγS Binding Assay in CHO-hB2 Cell Membranes
Format: biochemical
measurementSetup: number in parentheses; bradykinin-stimulated [35S]GTPγS binding; concentration not given
The answer consists of two parts: a number and, after it, its unit.

{"molecularString": "CC(=O)Nc1ccc(C=CC(=O)NC[C@H]2CCCN2c2ccc(C)c(COc3cccc4ccc(C)nc34)c2C)cn1", "measurementTarget": "human B2 bradykinin receptors (CHO-hB2 cell membranes) (Homo sapiens, UniProt P30411)", "Functional Activity (% Basal)": "59 % Basal"}
{"molecularString": "Cc1ccc2cccc(OCc3c(Cl)ccc(N(C)C(=O)Cc4ccc(C(=O)CN5CCC(c6ccccc6)CC5)n4C)c3Cl)c2n1", "measurementTarget": "human B2 bradykinin receptors (CHO-hB2 cell membranes) (Homo sapiens, UniProt P30411)", "Functional Activity (% Basal)": "1 % Basal"}
{"molecularString": "CCCCn1c(CC(=O)N(C)c2ccc(Cl)c(COc3cccc4ccc(C)nc34)c2Cl)ccc1C(=O)c1ccc(C#N)cc1", "measurementTarget": "human B2 bradykinin receptors (CHO-hB2 cell membranes) (Homo sapiens, UniProt P30411)", "Functional Activity (% Basal)": "1 % Basal"}
{"molecularString": "CCn1c(CC(=O)N(C)c2ccc(Cl)c(COc3cccc4ccc(C)nc34)c2Cl)ccc1C(=O)c1ccc(C#N)cc1", "measurementTarget": "human B2 bradykinin receptors (CHO-hB2 cell membranes) (Homo sapiens, UniProt P30411)", "Functional Activity (% Basal)": "40 % Basal"}
{"molecularString": "Cc1ccc2cccc(OCc3c(Cl)ccc(N(C)C(=O)Cc4ccc(C(=O)CN5CCC(Cc6ccccc6)CC5)n4C)c3Cl)c2n1", "measurementTarget": "human B2 bradykinin receptors (CHO-hB2 cell membranes) (Homo sapiens, UniProt P30411)", "Functional Activity (% Basal)": "1 % Basal"}
{"molecularString": "COc1ccc(C(=O)c2ccc(CC(=O)N(C)c3ccc(Cl)c(COc4cccc5ccc(C)nc45)c3Cl)n2C)cc1", "measurementTarget": "human B2 bradykinin receptors (CHO-hB2 cell membranes) (Homo sapiens, UniProt P30411)", "Functional Activity (% Basal)": "4 % Basal"}
{"molecularString": "Cc1ccc2cccc(OCc3c(Cl)ccc(N(C)C(=O)CCc4ccc(C(=O)c5cnccc5Cl)n4C)c3Cl)c2n1", "measurementTarget": "human B2 bradykinin receptors (CHO-hB2 cell membranes) (Homo sapiens, UniProt P30411)", "Functional Activity (% Basal)": "51 % Basal"}
{"molecularString": "Cc1ccc2cccc(OCc3c(Cl)ccc(N(C)C(=O)Cc4ccc(C(=O)c5ccc(C#N)cc5)n4CC4CC4)c3Cl)c2n1", "measurementTarget": "human B2 bradykinin receptors (CHO-hB2 cell membranes) (Homo sapiens, UniProt P30411)", "Functional Activity (% Basal)": "1 % Basal"}
{"molecularString": "CCN(C(=O)Cc1ccc(C(=O)c2ccc(Cl)nc2)n1C)c1ccc(Cl)c(COc2cccc3ccc(C)nc23)c1Cl", "measurementTarget": "human B2 bradykinin receptors (CHO-hB2 cell membranes) (Homo sapiens, UniProt P30411)", "Functional Activity (% Basal)": "1 % Basal"}
{"molecularString": "Cc1ccc2cccc(OCc3c(C)ccc(N(C)C(=O)Cc4ccc(C(=O)c5cnccc5C#N)n4C)c3C)c2n1", "measurementTarget": "human B2 bradykinin receptors (CHO-hB2 cell membranes) (Homo sapiens, UniProt P30411)", "Functional Activity (% Basal)": "83 % Basal"}

IN: # return recorded Functional Activity (% Basal) for entry Cc1ccc2cccc(OCc3c(C)ccc(N(C)C(=O)Cc4ccc(C(=O)c5ccc(C#N)cc5)n4C)c3C)c2n1
OUT: 100 % Basal

IN: Tell us which Functional Activity (% Basal) value is on record for Cc1ccc2cccc(OCc3c(C)ccc(N(C)C(=O)CCc4ccc(C(=O)c5ccncc5)n4C)c3C)c2n1
OUT: 50 % Basal

IN: Give the reported Functional Activity (% Basal) for this compound. Cc1ccc2cccc(OCc3c(Cl)ccc(N(C)C(=O)Cc4ccc(C(=O)c5ccc(C#N)cc5)n4CC(C)C)c3Cl)c2n1
OUT: 1 % Basal

IN: Provide measured Functional Activity (% Basal) value, entry: CCCn1c(CC(=O)N(C)c2ccc(Cl)c(COc3cccc4ccc(C)nc34)c2Cl)ccc1C(=O)c1ccc(C#N)cc1
OUT: 1 % Basal

IN: Please report the measured Functional Activity (% Basal) for CCN(C(=O)Cc1ccc(C(=O)c2ccc(C#N)cc2)n1C)c1ccc(Cl)c(COc2cccc3ccc(C)nc23)c1Cl
OUT: 1 % Basal

* * *

measurementTarget: human B2 bradykinin receptors (CHO-hB2 cell membranes) (Homo sapiens, UniProt P30411)
Construct: purchased Receptor Biology, Inc. (Baltimore, Md.); host or cells: CHO-hB2 cells (membranes)
protocol: [35S]GTPγS Binding Assay in CHO-hB2 Cell Membranes
Type: biochemical
measurementSetup: bradykinin-stimulated [35S]GTPγS binding
measuredProperty: Functional Activity (word result)

Study these solved cases before continuing.
{"molecule": "Cc1ccc2cccc(OCc3c(Cl)ccc(N(C)C(=O)Cc4ccc(C(=O)c5ccc(S(C)(=O)=O)cc5)n4C)c3Cl)c2n1 [Compound 75]", "measuredValue": "Antagonist"}
{"molecule": "Cc1ccc2cccc(OCc3c(Cl)ccc(N(C)C(=O)Cc4ccc(C(=O)c5ccc([S+](C)[O-])cc5)n4C)c3Cl)c2n1 (stereo not shown) [Compound 73]", "measuredValue": "Antagonist"}
{"molecule": "Cc1ccc2cccc(OCc3c(Cl)ccc(N(C)C(=O)Cc4ccc(C(=O)c5ccc(C#N)cc5)n4CC(C)C)c3Cl)c2n1 [Compound 12]", "measuredValue": "No effect"}
{"molecule": "Cc1ccc2cccc(OCc3c(C)ccc(N(C)C(=O)Cc4ccc(C(=O)c5ccc(C#N)cc5)n4C)c3C)c2n1 [Compound 79]", "measuredValue": "Antagonist"}

IN: Report Functional Activity (word result), nothing else, for this molecule: CCN(C(=O)Cc1ccc(C(=O)c2ccc(C#N)cc2)n1C)c1ccc(C)c(COc2cccc3ccc(C)nc23)c1C [Compound 16]
OUT: No effect

IN: Report measured Functional Activity (word result); entry is COc1ccc(C(=O)c2ccc(CC(=O)N(C)c3ccc(Cl)c(COc4cccc5ccc(C)nc45)c3Cl)[nH]2)cc1 [Compound 5]
OUT: Antagonist

IN: Determine from records and report Functional Activity (word result) for CC(=O)Nc1cccc(C(=O)c2ccc(CC(=O)N(C)c3ccc(Cl)c(COc4cccc5ccc(C)nc45)c3Cl)n2C)c1 [Compound 72]
OUT: Antagonist

* * *

measurementTarget: human B2 bradykinin receptors (CHO-hB2 cell membranes) (Homo sapiens)
Construct: purchased Receptor Biology, Inc. (Baltimore, Md.); host or cells: CHO-hB2 cells (membranes)
Sequence (P30411 1-391): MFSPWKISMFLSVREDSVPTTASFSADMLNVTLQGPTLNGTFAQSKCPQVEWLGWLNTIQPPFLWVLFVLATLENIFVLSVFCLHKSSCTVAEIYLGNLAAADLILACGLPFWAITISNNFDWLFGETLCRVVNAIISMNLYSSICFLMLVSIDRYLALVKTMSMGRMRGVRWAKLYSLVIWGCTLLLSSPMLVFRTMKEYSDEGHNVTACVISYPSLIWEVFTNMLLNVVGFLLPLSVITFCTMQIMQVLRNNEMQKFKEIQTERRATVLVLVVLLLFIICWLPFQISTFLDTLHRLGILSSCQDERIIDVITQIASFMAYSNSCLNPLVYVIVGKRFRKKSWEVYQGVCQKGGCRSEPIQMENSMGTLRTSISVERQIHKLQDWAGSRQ
protocol: [35S]GTPγS Binding Assay in CHO-hB2 Cell Membranes
Type: biochemical
measurementSetup: number in parentheses; bradykinin-stimulated [35S]GTPγS binding; concentration not given
measuredProperty: Functional Activity (% Basal)
Answer with a number only, understood to be in % Basal.

Here is how some compounds turned out for Functional Activity (% Basal).
{"compound": "Cc1ccc2cccc(OCc3c(C)ccc(N(C)C(=O)Cc4ccc(C(=O)c5cnccc5Cl)n4C)c3C)c2n1 [Compound 77]", "measuredValue": 62}
{"compound": "Cc1ccc2cccc(OCc3c(Cl)ccc(N(C)C(=O)Cc4ccc(C(=O)c5ccc(C#N)cc5)n4CCC(C)C)c3Cl)c2n1 [Compound 13]", "measuredValue": 1}
{"compound": "Cc1ccc2cccc(OCc3c(C)ccc(N(C)C(=O)CCc4ccc(C(=O)c5ccc(C#N)cc5)n4C)c3C)c2n1 [Compound 90]", "measuredValue": 50}

IN: Identify measured Functional Activity (% Basal) corresponding to CCN(C(=O)Cc1ccc(C(=O)c2ccc(C#N)cc2)n1C)c1ccc(C)c(COc2cccc3ccc(C)nc23)c1C [Compound 16]
OUT: 1

* * *

measurementTarget: human B2 bradykinin receptors (CHO-hB2 cell membranes) (Homo sapiens)
Construct: purchased Receptor Biology, Inc. (Baltimore, Md.); host or cells: CHO-hB2 cells (membranes)
protocol: [35S]GTPγS Binding Assay in CHO-hB2 Cell Membranes
Assay type: biochemical
measurementSetup: bradykinin-stimulated [35S]GTPγS binding
measuredProperty: Functional Activity (word result)

Study these solved cases before continuing.
{"molecularString": "CCCn1c(CC(=O)N(C)c2ccc(Cl)c(COc3cccc4ccc(C)nc34)c2Cl)ccc1C(=O)c1ccc(C#N)cc1", "measuredValue": "No effect"}
{"molecularString": "Cc1ccc2cccc(OCc3c(Cl)ccc(N(C)C(=O)Cc4ccc(C(=O)c5ccc([N+](=O)[O-])cc5)n4C)c3Cl)c2n1", "measuredValue": "Antagonist"}
{"molecularString": "Cc1ccc2cccc(OCc3c(C)ccc(N(C)C(=O)CCc4ccc(C(=O)c5cccnc5)n4C)c3C)c2n1", "measuredValue": "Antagonist"}
{"molecularString": "CC(=O)Nc1ccc(C=CC(=O)NC[C@H]2CCCN2c2ccc(C)c(COc3cccc4ccc(C)nc34)c2C)cn1", "measuredValue": "Antagonist"}
{"molecularString": "Cc1ccc2cccc(OCc3c(C)ccc(N(C)C(=O)CCc4ccc(C(=O)c5ccc(C#N)cc5)n4C)c3C)c2n1", "measuredValue": "Antagonist"}
{"molecularString": "Cc1ccc2cccc(OCc3c(Cl)ccc(N(C)C(=O)Cc4ccc(C(=O)c5ccccc5[N+](=O)[O-])n4C)c3Cl)c2n1", "measuredValue": "Antagonist"}
{"molecularString": "Cc1ccc2cccc(OCc3c(Cl)ccc(N(C)C(=O)Cc4ccc(C(=O)c5ccc(C#N)cc5)n4CCC(C)C)c3Cl)c2n1", "measuredValue": "No effect"}
{"molecularString": "Cc1ccc2cccc(OCc3c(Cl)ccc(N(C)C(=O)CCc4ccc(C(=O)c5cnccc5Cl)n4C)c3Cl)c2n1", "measuredValue": "Antagonist"}

IN: Please indicate recorded Functional Activity (word result) of COC(=O)c1ccc(C(=O)c2ccc(CC(=O)N(C)c3ccc(Cl)c(COc4cccc5ccc(C)nc45)c3Cl)n2C)cc1 measured with human B2 bradykinin receptors (CHO-hB2 cell membranes) (Homo sapiens).
OUT: Antagonist

IN: Enter Functional Activity (word result) (test system human B2 bradykinin receptors (CHO-hB2 cell membranes) (Homo sapiens)) for CCN(C(=O)Cc1ccc(C(=O)c2ccc(Cl)nc2)n1C)c1ccc(Cl)c(COc2cccc3ccc(C)nc23)c1Cl
OUT: No effect

IN: Give measured Functional Activity (word result) for CCN(C(=O)Cc1ccc(C(=O)c2ccc(C#N)cc2)n1C)c1ccc(Cl)c(COc2cccc3ccc(C)nc23)c1Cl (human B2 bradykinin receptors (CHO-hB2 cell membranes) (Homo sapiens)).
OUT: No effect

IN: Give Functional Activity (word result); test system human B2 bradykinin receptors (CHO-hB2 cell membranes) (Homo sapiens); compound Cc1ccc2cccc(OCc3c(Cl)ccc(N(C)C(=O)Cc4ccc(C(=O)c5ccc(C#N)cc5)n4C)c3Cl)c2n1
OUT: Antagonist

IN: Name the recorded Functional Activity (word result) of Cc1ccc2cccc(OCc3c(Cl)ccc(N(C)C(=O)Cc4ccc(C(=O)c5ccc(C#N)nc5)n4C)c3Cl)c2n1 , assay system human B2 bradykinin receptors (CHO-hB2 cell membranes) (Homo sapiens).
OUT: Antagonist

IN: # return Functional Activity (word result) for Cc1ccc2cccc(OCc3c(C)ccc(N(C)C(=O)CCc4ccc(C(=O)c5ccncc5)n4C)c3C)c2n1 , test system: human B2 bradykinin receptors (CHO-hB2 cell membranes) (Homo sapiens)
OUT: Antagonist

IN: System human B2 bradykinin receptors (CHO-hB2 cell membranes) (Homo sapiens). Read-out Functional Activity (word result). Item CC(=O)Nc1ccc(C(=O)c2ccc(CC(=O)N(C)c3ccc(Cl)c(COc4cccc5ccc(C)nc45)c3Cl)n2C)cc1 . Report value.
OUT: Antagonist
